# protocol_summary: yeast display, Sf9 membrane polyspecificity reagent, FACS + sequencing; frameworks hold sequencing errors
value_type: polyreactivity (PSR sort gate)

QVQLQESGGGLEQAGGSLRLSCAASGYISDIGTMGWYRQAPGKEREFVATIVVGSTTNYADSVKGRFTISRDNAKNTVYLQPQSGRYRGVLLRAWLLAVGKFTYWGQGTQETVSS    low polyreactivity
QVQLVESGGGLVQAGGSLRLSCAASGFILGLNALGWYRHAPGKAWEFVADISWSGDSTYYADSVKGRFTISRDNAKNTVYLQMNSRKPEDTAVYYCPAVWYTSRQKYDYWGQGTQGTVSS    low polyreactivity

----------
# protocol_summary: yeast display, Sf9 membrane polyspecificity reagent, FACS + sequencing; frameworks hold sequencing errors
value_type: polyreactivity (PSR sort gate)

QVQLVESGGGLVQAGGSLRLSCAAYGHIFFYYTMGWYRQAPGKERELVAAITIGGSTNYADSVKGRFTISRDYAKNTVYLQMNSLKPEDTAVYYCNVVKYVYIYSYWEYYYWGHGTQVTVSS    low polyreactivity
QVQLVDSGGGLVQAGGSLRLSCAASGSNFVWYAMGWYIQAPGKEREMVAAITWSGGSTYYADSVKGRFTISRDNAKNTVYLPMNSLKPEDSAVYYFNAVSYRYYSKLGSWGQGTQVTLSS    high polyreactivity
QVQLVESGGGLVQAGGSLRLSCAASGRTFVFYGMGWYRQAPGKEREFVAAITRRGGSTYYADSVKGRFTISRDNAKNTVYLQMNSLKPEDTAVYYCAAGYSSRYRGGLDYWGQGTQVTVSS    high polyreactivity
QVQLVESGGGLVQAGGSLRLSCAASGSTFYVNTMGWYRQAPGKERELVAAINWRGGSTYYADSVKWRFTISRDNAKNTVYLQMNSLKPEDTAVYYCAAYGFYRYVTAYIYDMDYWGQGTQVSVSS    low polyreactivity

Look up polyreactivity (PSR sort gate) for this sequence: `QVQLVESGGGLVQAGGSLRLSCAASGRTFSYYAMGWYRQAPGKERELVAAITSSGGRTYYADSVKGRFTISRDTAKKSFYFQMYSLKPEDSAVYFFNTYTGQRDFSPFDSWGQGTQVTVTS` high polyreactivity
